The measurements presented in this section are drawn from paper PMC8445433.

system: DRB3*02:02 (Homo sapiens, UniProt P01903+P79483, A212P/D57E/F66Y/L67A/R103Q/R218S/R40L/S89Y/T80R/V86D/Y55F/Y59H)
Sequence (P01903 26-254 limits assumed): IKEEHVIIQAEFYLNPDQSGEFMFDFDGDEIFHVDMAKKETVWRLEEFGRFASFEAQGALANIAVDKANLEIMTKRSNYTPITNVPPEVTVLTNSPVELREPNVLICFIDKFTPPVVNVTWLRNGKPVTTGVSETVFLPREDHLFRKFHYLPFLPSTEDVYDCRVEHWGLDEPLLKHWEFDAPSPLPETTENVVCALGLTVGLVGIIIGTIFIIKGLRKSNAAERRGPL
Sequence (P79483 30-266 R40L/Y55F/D57E/Y59H/F66Y/L67A/T80R/V86D/S89Y/R103Q/A212P/R218S limits assumed): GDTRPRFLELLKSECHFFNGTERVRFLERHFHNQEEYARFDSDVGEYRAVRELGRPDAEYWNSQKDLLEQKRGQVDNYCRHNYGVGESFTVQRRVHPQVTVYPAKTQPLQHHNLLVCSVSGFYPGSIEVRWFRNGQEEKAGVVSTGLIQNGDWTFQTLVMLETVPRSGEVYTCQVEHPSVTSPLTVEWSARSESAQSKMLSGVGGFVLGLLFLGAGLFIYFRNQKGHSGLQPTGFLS
procedure_text: biochemical
Where a SMILES comes first, the peptide text is derived from it.
// values below are reported IC50
metric_name: IC50 (nM)

[
  {
    "molecule": "CC[C@H](C)[C@H](NC(=O)CNC(=O)[C@H](CC(=O)O)NC(=O)[C@H](CCCCN)NC(=O)[C@@H](N)CC(N)=O)C(=O)N[C@H](C(=O)N[C@@H](Cc1c[nH]c2ccccc12)C(=O)N[C@H](C(=O)N[C@@H](C)C(=O)N[C@H](C(=O)N[C@@H](CCC(=O)O)C(=O)NCC(=O)N[C@@H](C)C(=O)N[C@@H](CC(C)C)C(=O)N[C@@H](CC(N)=O)C(=O)O)[C@@H](C)O)C(C)C)[C@@H](C)CC [Ncl_26] (H-NKDGIIWVATEGALN-OH)",
    "metric_name": "IC50",
    "unit_label": "nM",
    "experimental_value": 2480
  },
  {
    "molecule": "CC[C@H](C)[C@H](NC(=O)[C@H](Cc1c[nH]cn1)NC(=O)[C@H](CCCCN)NC(=O)[C@H](CC(N)=O)NC(=O)[C@H](CC(C)C)NC(=O)[C@H](CC(C)C)NC(=O)[C@@H](NC(=O)[C@@H](NC(=O)[C@H](CCC(N)=O)NC(=O)[C@H](CC(=O)O)NC(=O)[C@H](CCCCN)NC(=O)[C@@H](N)Cc1ccccc1)C(C)C)[C@@H](C)CC)C(=O)N[C@@H](CC(=O)O)C(=O)N[C@@H](C)C(=O)N[C@@H](Cc1ccc(O)cc1)C(=O)O [Ncl_70] (H-FKDQVILLNKHIDAY-OH)",
    "metric_name": "IC50",
    "unit_label": "nM",
    "experimental_value": 205
  }
]
